Origin of measurements: paper PMC6895048

# TGT: TDO enzyme (Homo sapiens)
# Construct: 6xHis (N); made in house; host or cells: Escherichia coli BL21 (DE3) (pET 28a vector)
# Sequence (P48775 whole entry): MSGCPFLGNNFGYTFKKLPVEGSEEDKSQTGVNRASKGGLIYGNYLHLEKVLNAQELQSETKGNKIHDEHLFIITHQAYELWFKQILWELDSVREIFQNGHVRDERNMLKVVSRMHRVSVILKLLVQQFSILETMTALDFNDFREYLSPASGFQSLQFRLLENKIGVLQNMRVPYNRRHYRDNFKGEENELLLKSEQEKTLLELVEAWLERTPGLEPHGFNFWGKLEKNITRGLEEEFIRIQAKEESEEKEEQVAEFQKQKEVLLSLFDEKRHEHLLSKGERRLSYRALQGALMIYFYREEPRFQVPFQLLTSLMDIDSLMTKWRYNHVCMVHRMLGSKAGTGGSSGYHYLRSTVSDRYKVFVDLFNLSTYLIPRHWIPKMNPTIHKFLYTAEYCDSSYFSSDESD
# ASSAY PROCEDURE: HPLC based TDO inhibition assay
# Type: biochemical
# SETUP CONDITIONS: 20 µM
READOUT TYPE: % Of inhibition for TDO enzyme (%)
// note: answer is a bare numeric in %

Solved cases (2 shown):
{"SMILES INPUT": "CCOC(=O)c1n[nH]nc1-c1ccc(Cl)c(Cl)c1", "RESULT UNIT": "%", "READOUT VALUE": 41}
{"SMILES INPUT": "CCOC(=O)c1n[nH]nc1-c1ccc(F)c(F)c1", "RESULT UNIT": "%", "READOUT VALUE": 63}

Ask: Using the record for O=C(O)c1n[nH]nc1-c1ccc(F)c(F)c1 , report its % Of inhibition for TDO enzyme.
Result: 41

====

Catalogue of % of Secondary structural elements, Helix readings, one per entry.
# TGT: IDO1 (Homo sapiens)
# Sequence (P14902 whole entry): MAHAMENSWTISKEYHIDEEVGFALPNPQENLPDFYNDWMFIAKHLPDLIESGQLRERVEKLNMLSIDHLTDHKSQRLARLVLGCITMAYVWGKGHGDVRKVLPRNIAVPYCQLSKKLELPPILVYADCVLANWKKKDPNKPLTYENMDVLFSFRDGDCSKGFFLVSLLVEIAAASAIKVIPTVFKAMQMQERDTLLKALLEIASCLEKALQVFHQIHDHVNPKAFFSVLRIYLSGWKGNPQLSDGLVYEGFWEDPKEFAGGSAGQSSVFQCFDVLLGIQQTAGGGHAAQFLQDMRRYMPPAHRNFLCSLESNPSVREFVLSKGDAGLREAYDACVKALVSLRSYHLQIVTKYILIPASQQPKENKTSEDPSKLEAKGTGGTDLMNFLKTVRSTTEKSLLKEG
# ASSAY PROCEDURE: Circular dichroism analysis of IDO1 enzyme
# Design: made in house; host or cells: Escherichia coli M15 (pQE30 vector with pREP4 plasmid)
# SETUP CONDITIONS: compound 4 µM
// note: answer is a bare numeric in %

{"SMILES INPUT": "O=C(N/C(Cc1ccc(O)cc1)=N\\O)c1n[nH]nc1-c1ccc(F)c(F)c1", "TGT": "IDO1 (Homo sapiens)", "READOUT VALUE": 31.8}
{"SMILES INPUT": "CCOC(=O)c1n[nH]nc1-c1ccc(F)c(F)c1", "TGT": "IDO1 (Homo sapiens)", "READOUT VALUE": 30.5}
{"SMILES INPUT": "NS(=O)(=O)NCCNC(=O)c1n[nH]nc1-c1ccc(F)c(F)c1", "TGT": "IDO1 (Homo sapiens)", "READOUT VALUE": 29.1}

# input for lookup
Ask: Using the record for NC(=O)c1n[nH]nc1-c1ccc(F)c(F)c1 , report its % of Secondary structural elements, Helix.
Result: 30.7

====

# TGT: purified human TDO enzyme (Homo sapiens)
# Construct: 6xHis (N); made in house; host or cells: Escherichia coli BL21 (DE3) (pET 28a vector)
# Sequence (P48775 whole entry): as the sequence (P48775 whole entry) above
# ASSAY PROCEDURE: TDO inhibition assay by the spectrometric method
# Assay type: biochemical
# SETUP CONDITIONS: spectrophotometric; 160 nM
READOUT TYPE: inhibition at 0.16 µM
# output: numeric value plus its unit

{"SMILES INPUT": "CCOC(=O)c1n[nH]nc1-c1ccccc1", "TGT": "purified human TDO enzyme (Homo sapiens)", "inhibition at 0.16 µM": "17%"}
{"SMILES INPUT": "c1ccc(-c2nn[nH]c2-c2ccccc2)cc1", "TGT": "purified human TDO enzyme (Homo sapiens)", "inhibition at 0.16 µM": "10%"}
{"SMILES INPUT": "NC(=O)c1n[nH]nc1-c1ccccc1", "TGT": "purified human TDO enzyme (Homo sapiens)", "inhibition at 0.16 µM": "7%"}
{"SMILES INPUT": "NS(=O)(=O)NCCNC(=O)c1n[nH]nc1-c1ccc(F)c(F)c1", "TGT": "purified human TDO enzyme (Homo sapiens)", "inhibition at 0.16 µM": "6%"}

Ask: Using the record for NS(=O)(=O)NCCNC(=O)c1n[nH]nc1-c1ccc(Cl)c(Cl)c1 , report its inhibition at 0.16 µM.
Result: 10%
